# Tested on: HCT-15 colon
# testProtocol: NCI tumour cell line growth inhibition, 48 h
valueType: TGI

# annotated cases, reported TGI shown
molecule: COc1cc2c(cn1)[nH]c1ccccc12
TGI: > 100 µM
//
molecule: OCc1ccc(N(CCN2CCCC2)Cc2ccc(F)cc2)cc1Cl
TGI: 50.1 µM
//
molecule: NC1=Nc2cc(OCCCN3Cc4ccccc4C3)c(OCC3CC3)cc2C12CCCC2
TGI: 6.51 µM
//
molecule: COc1ccc(-c2cc(=O)c3c(OC)c(OC)c(OC)c(OC)c3o2)c(OC)c1
TGI: 86.1 µM
//
molecule: Cc1ccc(Oc2ccc([N+](=O)[O-])cc2[N+](=O)[O-])c(C)c1
TGI: > 100 µM

Hi! Can you tell me TGI for each of these molecules?
1. Cc1[nH]nc2c1N=C(c1ccccc1Cl)c1cc([N+](=O)[O-])ccc1N2
2. N#C/C(=C\c1ccc(C(O)P(=O)(O)O)cc1)C(N)=O (stereo not given)
3. C#CC(O)/C=C/C(O)CCCC(O)CC#CC(O)C#CC(O)CCCC(O)/C=C/CCCC(=O)CCCCCCCCCCCCCCCC(O)C(O)C#CC(=O)O (stereo not given)
4. C(=C\c1cc(-c2ccc3ccccc3n2)nc2ccc3ccccc3c12)/c1ccc2ccccc2n1
5. C=CCN(c1cc(OC)c2[nH]cc(C)c2c1[N+](=O)[O-])S(C)(=O)=O

> 25 µM
> 100 µM
> 50 µM
> 100 µM
> 100 µM
